Each recorded value in this set is attributed to paper PMC8989696.

test protocol: Furathiocarb biotransformation kinetics in individual human hepatic microsomes (10 donors)
Type: in vitro ADME
protocol conditions: human, pH 7.4, HLM32; read-out: Km, sum of carbofuran metabolic pathway
quantity measured: Km (µM)
Numbers only, in µM.

Any idea what its Km is? The molecule is CCCCOC(=O)N(C)SN(C)C(=O)Oc1cccc2c1OC(C)(C)C2
38.8

====

test protocol: Furathiocarb biotransformation kinetics in individual human hepatic microsomes (10 donors)
Assay type: in vitro ADME
protocol conditions: human, pH 7.4, HLM24; read-out: Km, sum of furathiocarb oxidation pathways
quantity measured: Km (µM)
Numbers only, in µM.

Quick check: Km of CCCCOC(=O)N(C)SN(C)C(=O)Oc1cccc2c1OC(C)(C)C2 [furathiocarb, Furathiocarb] ?
410

====

test protocol: Furathiocarb biotransformation kinetics in individual human hepatic microsomes (10 donors)
Format: in vitro ADME
protocol conditions: human, pH 7.4, HLM29; read-out: Km, sum of carbofuran metabolic pathway
quantity measured: Km
Reply with the number, then its unit.

So what does the record say about Km for CCCCOC(=O)N(C)SN(C)C(=O)Oc1cccc2c1OC(C)(C)C2 ?
64.2 µM

====

test protocol: Furathiocarb biotransformation kinetics in individual human hepatic microsomes (10 donors)
Type: in vitro ADME
protocol conditions: human, pH 7.4, HLM20; read-out: Km, sum of carbofuran metabolic pathway
quantity measured: Km (µM)
Answers are plain numbers, in µM.

What value of measured Km is listed for CCCCOC(=O)N(C)SN(C)C(=O)Oc1cccc2c1OC(C)(C)C2 [furathiocarb, Furathiocarb] ?
63.2

====

test protocol: Furathiocarb biotransformation kinetics in individual human hepatic microsomes (10 donors)
Assay type: in vitro ADME
protocol conditions: human, pH 7.4, HLM20; read-out: Km, sum of furathiocarb oxidation pathways
quantity measured: Km (µM)
One number for each entry, in µM.

Would you mind telling me what Km value was observed for CCCCOC(=O)N(C)SN(C)C(=O)Oc1cccc2c1OC(C)(C)C2 ?
343

====

test system: CYP2C9 (Homo sapiens, UniProt P11712)
Sequence (P11712 whole entry): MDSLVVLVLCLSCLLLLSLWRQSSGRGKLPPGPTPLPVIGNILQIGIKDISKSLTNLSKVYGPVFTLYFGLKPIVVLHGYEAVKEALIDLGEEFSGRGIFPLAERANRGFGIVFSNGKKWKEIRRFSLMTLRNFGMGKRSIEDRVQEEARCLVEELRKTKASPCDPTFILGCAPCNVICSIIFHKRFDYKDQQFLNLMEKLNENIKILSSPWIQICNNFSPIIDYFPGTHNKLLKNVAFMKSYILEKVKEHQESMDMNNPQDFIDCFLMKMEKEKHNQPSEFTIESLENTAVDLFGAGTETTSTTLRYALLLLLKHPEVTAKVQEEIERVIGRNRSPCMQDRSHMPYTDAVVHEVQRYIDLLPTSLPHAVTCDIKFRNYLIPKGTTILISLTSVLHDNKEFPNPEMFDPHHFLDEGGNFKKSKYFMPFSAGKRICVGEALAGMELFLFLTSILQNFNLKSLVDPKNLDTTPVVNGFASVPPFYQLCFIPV
pIC50: −log10 of the molar value.
quantity measured: pIC50

Please report the recorded pIC50 for CCCCOC(=O)N(C)SN(C)C(=O)Oc1cccc2c1OC(C)(C)C2 .
4.73 to 4.78

====

test protocol: Furathiocarb biotransformation kinetics in individual human hepatic microsomes (10 donors)
Type: in vitro ADME
protocol conditions: at 300 µM furathiocarb; individual human hepatic microsomes
quantity measured: Metabolite formation rate (lowest to highest of 10 donors)

Use these answered entries as a reference point.
compound="CC1(C)Cc2cccc(O)c2O1 [7-phenolcarbofuran]" measured_value="4.5–8.3 nmol/(mg protein min)"
compound="CNC(=O)Oc1cccc2c1OC(C)(C)C2O (stereo not shown) [3-hydroxycarbofuran]" measured_value="0.68 to 6.83 nmol/(mg protein min)"
compound="CC1(C)Oc2c(O)cccc2C1O (stereo not shown) [3-hydroxy-7-phenolcarbofuran]" measured_value="0.02–0.52 nmol/(mg protein min)"

As a next step, examine the compound that follows.
Any idea what its Metabolite formation rate (lowest to highest of 10 donors) is? The compound is CNC(=O)Oc1cccc2c1OC(C)(C)C2=O [3-ketocarbofuran]
0.28–15.6 nmol/(mg protein min)

====

test protocol: Furathiocarb biotransformation kinetics in individual human hepatic microsomes (10 donors)
Format: in vitro ADME
protocol conditions: human, pH 7.4, HLM24; read-out: Km, sum of carbofuran metabolic pathway
quantity measured: Km (µM)
One number for each entry, in µM.

Query (compound): CCCCOC(=O)N(C)SN(C)C(=O)Oc1cccc2c1OC(C)(C)C2 ; field requested: Km
54.3

====

test protocol: Furathiocarb biotransformation kinetics in individual human hepatic microsomes (10 donors)
Format: in vitro ADME
protocol conditions: human, pH 7.4, HLM32; read-out: Km, sum of furathiocarb oxidation pathways
quantity measured: Km (µM)
Give bare numbers, in µM.

What does the record list as Km for CCCCOC(=O)N(C)SN(C)C(=O)Oc1cccc2c1OC(C)(C)C2 ?
280

====

So I've got a bunch of molecules here, and I need their Variation between the highest and lowest formation rate values.
test protocol: Furathiocarb biotransformation kinetics in individual human hepatic microsomes (10 donors)
Format: in vitro ADME
protocol conditions: at 300 µM furathiocarb; 10 donors
Answers are plain numbers, in fold.

Some molecules with recorded Variation between the highest and lowest formation rate:
molecule="CC1(C)Oc2c(O)cccc2C1O (stereo not shown) [3-hydroxy-7-phenolcarbofuran]" unit_string=fold measured_value=23
molecule="CNC(=O)Oc1cccc2c1OC(C)(C)C2=O [3-ketocarbofuran]" unit_string=fold measured_value=54.4
molecule="CNC(=O)Oc1cccc2c1OC(C)(C)C2O (stereo not shown) [3-hydroxycarbofuran]" unit_string=fold measured_value=10

Now for the molecule whose Variation between the highest and lowest formation rate we want.
Suppose we examine the molecule CC1(C)Cc2cccc(O)c2O1 [7-phenolcarbofuran] ; what Variation between the highest and lowest formation rate value has been reported?
2

====

test protocol: Furathiocarb biotransformation kinetics in individual human hepatic microsomes (10 donors)
Format: in vitro ADME
protocol conditions: human, pH 7.4, HLM28; read-out: Km, sum of carbofuran metabolic pathway
quantity measured: Km (µM)
Numbers only, in µM.

Param item = CCCCOC(=O)N(C)SN(C)C(=O)Oc1cccc2c1OC(C)(C)C2 ; retrieve measured Km.
55.8

====

test protocol: Furathiocarb biotransformation kinetics in individual human hepatic microsomes (10 donors)
Assay type: in vitro ADME
protocol conditions: human, pH 7.4, HLM29; read-out: Km, sum of furathiocarb oxidation pathways
quantity measured: Km (µM)
Numbers only, in µM.

Report Km for CCCCOC(=O)N(C)SN(C)C(=O)Oc1cccc2c1OC(C)(C)C2 please.
495

====

test protocol: Furathiocarb biotransformation kinetics in individual human hepatic microsomes (10 donors)
Type: in vitro ADME
protocol conditions: human, pH 7.4, HLM31; read-out: Km, sum of carbofuran metabolic pathway
quantity measured: Km (µM)
Numbers only, in µM.

For the molecule shown here, CCCCOC(=O)N(C)SN(C)C(=O)Oc1cccc2c1OC(C)(C)C2 , give the reported Km.
63.3

====

test protocol: Furathiocarb biotransformation kinetics in individual human hepatic microsomes (10 donors)
Assay type: in vitro ADME
protocol conditions: human, pH 7.4, HLM30; read-out: Km, sum of carbofuran metabolic pathway
quantity measured: Km (µM)
Numbers only, in µM.

Given the compound CCCCOC(=O)N(C)SN(C)C(=O)Oc1cccc2c1OC(C)(C)C2 [furathiocarb, Furathiocarb] , what is its reported Km?
25.9
